Metric name: melting point

These solved cases illustrate the format of a correct answer.
compound="CN=c1ssc(=Nc2ccccc2C)n1C [Compound C3]" experimental_result="100 to 101.4 °C"
compound="CN=c1ssc(=Nc2ccccc2)n1C [Compound C2]" experimental_result="80 to 82 °C"
compound="CN=c1ssc(=Nc2cccc(F)c2)n1C [Compound C11]" experimental_result="76.5 to 77.6 °C"
compound="Cc1cccc(N=c2nc(N3CCOCC3)ss2)c1 [Compound B5]" experimental_result="217 to 226 °C"
compound="CCCCc1ccc(N=c2nc(N(C)C)ss2)cc1 [Compound A2]" experimental_result="81 to 82.5 °C"

# input for lookup
Which measured melting point value corresponds to CN(C)c1nc(=Nc2ccc([N+](=O)[O-])cc2)ss1 [Compound A10] ?
170 to 171.5 °C
